target: human GPR4 (Homo sapiens (Human), UniProt P46093); test: Human GPR4 binding assay ([3H]4 radioligand, membranes of 300.19 cells expressing human GPR4)
Sequence (P46093 whole entry): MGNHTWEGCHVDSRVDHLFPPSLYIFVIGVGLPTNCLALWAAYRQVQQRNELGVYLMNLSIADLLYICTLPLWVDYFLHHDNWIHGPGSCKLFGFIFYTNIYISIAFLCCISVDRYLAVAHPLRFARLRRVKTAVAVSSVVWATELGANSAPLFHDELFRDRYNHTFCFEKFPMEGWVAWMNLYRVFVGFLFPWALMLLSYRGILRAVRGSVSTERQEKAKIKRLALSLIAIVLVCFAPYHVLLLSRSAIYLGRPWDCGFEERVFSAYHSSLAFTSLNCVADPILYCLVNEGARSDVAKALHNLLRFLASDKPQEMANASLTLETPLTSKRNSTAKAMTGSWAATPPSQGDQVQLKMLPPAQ
Where a name gives a salt, the structure may show the parent alone.
pIC50: recorded values
As a rule, pIC50 stands for the negative log10 of the concentration, concentration in M.

# example entries with known answers
• CCc1nn2c(C)cc(C)nc2c1Cc1ccc(/C=C/CC2(O)CNC2)cc1 [Example 2] = 7.47
• CCc1nn2c(C)cc(C)nc2c1Cc1ccc(/C=C/CN2CCN[C@@H](CN(C)C)C2)cc1 [Example 13, trihydrochloride] = 8.15
• CCc1nn2c(C)cc(C)nc2c1Cc1ccc(OCCN2CCNCC2)cc1 [Example 26] = 7.36

For record CCc1nn2c(C)cc(C)nc2c1Cc1ccc(-n2cc(CC3(O)CCNCC3)nn2)cc1 [Example 34] the listed pIC50 is 7.11

The measured pIC50 associated with CCc1nn2c(C)cc(C)nc2c1Cc1ccc(/C=C/C2(O)CCNCC2)cc1 [Example 1] reads 7.35

So for CCc1nn2c(C)cc(C)nc2c1Cc1ccc(/C=C/CC2(O)CCN(C(=O)CNC)CC2)cc1 [Example 7, hydrochloride] , the logged pIC50 turned out to be 7.47
